Tested on: LTD4
assay info: LTD4 antagonism in isolated guinea-pig trachea with indomethacin, Test method (ii) (Table 4)
Assay type: cell-based
condition details: Cavia porcellus, 0.5 h, LTD4 2×10^-8 g/ml, test compound 10^-6 g/ml, 30 min prior, 5 μmol indomethacin
Consider the following compounds; for each one, report its inhibition at 1 µg/mL.
Hey, just the number and the unit after it is fine.

Okay, here is my list. What is inhibition at 1 µg/mL for each of these?
1. CCc1cc(C=O)ccc1OCCCNc1cnn(C(C)C)c(=O)c1Br
2. CCCc1cc(O)ccc1OCCCNc1cnn(CC)c(=O)c1Br
3. CCc1cc(C#N)ccc1OCCCNc1cnn(C(C)C)c(=O)c1Cl
4. CCCc1cc(C(=O)O)ccc1OCCCNc1cnn(C(C)C)c(=O)c1Cl
5. CCCCc1cc(C(=O)OC)ccc1OCCCNc1cnn(CC)c(=O)c1Cl

Key:
81%
82%
80%
82%
79%

Data origin: patent US4783462A
